- System: Staphylococcus aureus 209P
- MEASUREMENT PROTOCOL: minimal inhibitory concentration, agar dilution method (in vitro)
- Assay type: cell-based
- Excerpt: When determined according to the agar dilution method, the penicillins [I] afford the minimal inhibitory concentrations as shown in the following Table 1: […]
Structures can show the parent of a compound that is named as a salt.
REPORTED PROPERTY: MIC (µg/mL)

CC1(C)SC2C(NC(=O)C(NC(=O)c3cnc4cnc(N)nc4c3O)c3ccccc3)C(=O)N2C1C(=O)O (stereo not drawn)
0.78
CC1(C)SC2C(NC(=O)C(NC(=O)c3cnc4ccncc4c3O)c3ccccc3)C(=O)N2C1C(=O)O (stereo not drawn)
0.78
CN(C)c1ncc2ncc(C(=O)NC(C(=O)NC3C(=O)N4C3SC(C)(C)C4C(=O)O)c3ccccc3)c(O)c2n1 (stereo not drawn)
0.78
CC(=O)CC(=O)Nc1ccc2ncc(C(=O)NC(C(=O)NC3C(=O)N4C3SC(C)(C)C4C(=O)O)c3ccccc3)c(O)c2n1 (stereo not drawn)
0.78
Cc1nc(C)c2ncc(C(=O)NC(C(=O)NC3C(=O)N4C3SC(C)(C)C4C(=O)O)c3ccccc3)c(O)c2n1 (stereo not drawn)
0.78
CC1(C)SC2C(NC(=O)C(NC(=O)c3cnc4nc(N)ncc4c3O)c3ccccc3)C(=O)N2C1C(=O)O (stereo not drawn)
0.78
Cc1ccc2c(O)c(C(=O)N[C@@H](C(=O)N[C@@H]3C(=O)N4[C@@H]3SC(C)(C)[C@@H]4C(=O)O)c3ccccc3)cnc2n1 [Example 4, potassium salt]
0.78
CC1(C)SC2C(NC(=O)C(NC(=O)c3cnc4ncncc4c3O)c3ccccc3)C(=O)N2C1C(=O)O (stereo not drawn)
0.78
CCN(CC)c1ccc2ncc(C(=O)NC(C(=O)NC3C(=O)N4C3SC(C)(C)C4C(=O)O)c3ccccc3)c(O)c2n1 (stereo not drawn)
0.78
CC1(C)SC2C(NC(=O)C(NC(=O)c3cnc4cccnc4c3O)c3cccs3)C(=O)N2C1C(=O)O (stereo not drawn)
0.78
CN(C)c1nccc2ncc(C(=O)NC(C(=O)NC3C(=O)N4C3SC(C)(C)C4C(=O)O)c3ccccc3)c(O)c12 (stereo not drawn)
0.78
CC1(C)SC2C(NC(=O)C(NC(=O)c3cnc4cncnc4c3O)c3cccs3)C(=O)N2C1C(=O)O (stereo not drawn)
0.78
